Target: Active Human ERK2 (hERK2) (Homo sapiens (Human))
Sequence (P28482 whole entry): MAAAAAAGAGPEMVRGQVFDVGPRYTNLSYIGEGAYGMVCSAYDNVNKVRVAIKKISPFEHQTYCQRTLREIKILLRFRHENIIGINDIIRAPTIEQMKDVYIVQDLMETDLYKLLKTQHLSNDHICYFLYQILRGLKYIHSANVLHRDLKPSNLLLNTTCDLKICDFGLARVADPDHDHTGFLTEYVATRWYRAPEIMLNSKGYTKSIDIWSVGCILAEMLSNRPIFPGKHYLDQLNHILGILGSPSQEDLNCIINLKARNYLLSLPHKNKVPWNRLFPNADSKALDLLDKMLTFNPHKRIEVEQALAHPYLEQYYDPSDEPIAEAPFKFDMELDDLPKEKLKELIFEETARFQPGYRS
Assay: Active Human ERK2 (hERK2) Activity Assay (IMAP-FP)
Type: biochemical
Conditions: phosphorylated active hERK2, 30 μM ATP; average; read-out: ERK 2 Human average IC50
measurement.name: IC50 (nM)

INSERT INTO measurements (compound, measurement_name, u, recorded_result) VALUES
  ('C[C@@H](NC(=O)Nc1cc2[nH]nc(-c3ccnc(F)c3)c2cn1)C1CCCCC1', 'IC50', 'nM', 3.34),
  ('C[C@@H](NC(=O)Nc1cc2[nH]nc(C(=O)NCc3nc4ccncc4[nH]3)c2cn1)c1ccccc1', 'IC50', 'nM', 5.47),
  ('Cc1cc(-c2n[nH]c3cc(NC(=O)N[C@@H](C)c4ccncc4)ncc23)ccn1', 'IC50', 'nM', 21.9),
  ('Cc1cc(-c2n[nH]c3cc(NC(=O)NCC4COCCO4)ncc23)ccn1 (centres unmarked)', 'IC50', 'nM', 3.57),
  ('Cc1cc(-c2n[nH]c3cc(NC(=O)N[C@H](CO)c4ccccc4)ncc23)ccn1', 'IC50', 'nM', 0.392),
  ('Cc1cc(-c2n[nH]c3cc(NC(=O)NCc4cccc5ccccc45)ncc23)ccn1', 'IC50', 'nM', 3.92),
  ('C[C@@H](NC(=O)Nc1cc2[nH]nc(-c3cnn(C)c3)c2cn1)c1ccc(F)cc1', 'IC50', 'nM', 0.469),
  ('Cc1cc(-c2n[nH]c3cc(NC(=O)NCc4cc[nH]n4)ncc23)ccn1', 'IC50', 'nM', 2.72);
